# Test system: MDA-MB-231 breast
# assayComment: NCI-60 one-dose screen, 48 h
# cond: 10 µM unless noted
About 83,000 compounds went through this panel and 20% of them were active in at least one assay; those are over-represented in the sample as a whole. Activity calls are given as the source filed them. How the source made its calls: active means growth percent below 10; inactive means the rest.
Form entry, call: pick from TRUE = active, FALSE = inactive

>  <compound>
Cc1cccc(N=Nc2cccc(C)c2)c1

>  <assignedClass>
FALSE

$$$$
>  <compound>
c1cc(OCCN2CCCCCC2)ccc1CNc1ccc2nc(CCC3CCCCC3)[nH]c2c1

>  <assignedClass>
FALSE

$$$$

In the following, a different compound is considered.
Ask: Just curious, what result did "C=C(C)[C@@H]1CC[C@]2(C(=O)Nc3ccccn3)CC[C@]3(C)[C@H](CC[C@@H]4[C@@]5(C)CCCNC(C)(C)[C@@H]5CC[C@]43C)[C@@H]12" get here?
Reply: FALSE

###

# System: SF-539 CNS
# assayComment: NCI-60 one-dose screen, 48 h (100 = growth as untreated, 0 = no growth, -100 = all killed)
# cond: 10 µM unless noted
Compounds without any hit were thinned out: in the full panel of roughly 83,000, 20% have a hit. Activity calls are given as the source filed them. How the source made its calls: active means growth percent below 10; inactive means the rest.
Item-by-item account of growth

>  <smilesStructure>
C=C(c1ccc(C(=O)O)c(F)c1)c1cc2c(cc1C)C(C)(C)CCC2(C)C

>  <growth>
81.1% (inactive)

$$$$

Ask: For the compound shown here, "CCCCCCCCn1ccc2cc(NC(=O)CN=[N+]=[N-])ccc21" , give the reported growth.
Reply: 106% (inactive)

Ask: Follow-up item: "C#CCOc1ccc2nc(CCl)c(Cl)c(Nc3cccc(C(F)(F)F)c3)c2c1"
Reply: 104% (inactive)

Ask: Follow-up item: "Nc1nc(C(=O)N/N=C/c2ccc(F)cc2)nn1-c1ccc(S(N)(=O)=O)cc1"
Reply: 98.9% (inactive)

Ask: Follow-up item: "COc1ccccc1/C=C/C(=O)Nc1ccc(F)cc1"
Reply: 101% (inactive)

###

# System: COLO 205 colon
# assayComment: NCI-60 one-dose screen, 48 h
# cond: 10 µM unless noted
Compounds without any hit were thinned out: in the full panel of roughly 83,000, 20% have a hit. Calls of active or inactive are those of the source. Rule for the calls: active = growth percent below 10; inactive = the rest.
Form entry, call: pick from y for active, n for inactive

Solved entries (count: 2):
>  <smilesStructure>
CN(C)c1ccc(/C=N\NC(=O)c2ccc3nc(-c4ccc(Cl)cc4)[nH]c3c2)cc1

>  <assignedClass>
n

$$$$
>  <smilesStructure>
O=C(NNc1nc2cc(F)ccc2n2c(CN3CCOCC3)ccc12)c1ccccc1

>  <assignedClass>
y

$$$$

Ask: Just curious, what result did "CCN(CC)CCOc1ccc(/C(=C(\C)Cc2ccc(OC)cc2)c2ccc(OC(=O)NCc3ccccc3)cc2)cc1" get here?
Reply: y

Ask: Follow-up item: "Cc1ccc(OCCOCCOCCOc2ccc(C)n(O)c2=S)c(=S)n1O"
Reply: y

Ask: Follow-up item: "CC/C(=C(/c1ccc(O)cc1)c1ccc(OCCN2CCCCC2)cc1)c1ccc(OC)cc1"
Reply: y

###

Item-by-item account of growth
# Test system: CCRF-CEM leukemia
# assayComment: NCI-60 one-dose screen, 48 h (100 = growth as untreated, 0 = no growth, -100 = all killed)
# cond: 10 µM unless noted
About 83,000 compounds went through this panel and 20% of them were active in at least one assay; those are over-represented in the sample as a whole. Active and inactive are the calls of the source. The calls were made as follows: active = growth percent below 10; inactive = the rest.

Guide cases for growth, answers given:
>  <compound>
COC(=O)c1ccc2c(c1)c1c(C)c3cnccc3c(C)c1n2C

>  <growth>
6.83% (active)

$$$$
>  <compound>
COc1ccc(Oc2ccc(/C=C/C(=O)c3ccc(OC)c(OC)c3)cc2)cc1

>  <growth>
70.3% (inactive)

$$$$
>  <compound>
O=C1Nc2ccc(Cl)cc2/C1=C/c1ccc[nH]1

>  <growth>
96.2% (inactive)

$$$$
>  <compound>
Cc1cccc(N=Nc2cccc(C)c2)c1

>  <growth>
108% (inactive)

$$$$
>  <compound>
COc1ccc(/C=C2\CN(C(=O)C(Cl)Cl)C/C(=C\c3ccc(OC)c(OC)c3)C2=O)cc1OC

>  <growth>
12% (inactive)

$$$$

Ask: Any idea what growth came out for CC[C@@H](C(=O)[C@@H](C)[C@@H](O)[C@H](C)[C@@H]1O[C@@H]([C@@H](CC)C(=O)ONC(=O)c2ccccc2O)CC[C@@H]1C)C1O[C@]2(C=CC(=O)[C@]3(CC[C@@](C)([C@H]4CC[C@](O)(CC)[C@H](C)O4)O3)O2)[C@H](C)C[C@@H]1C (stereo partly specified) on CCRF-CEM leukemia?
Reply: 36.6% (inactive)

Ask: Follow-up item: "O=C1Nc2ccccc2/C1=N/N1C(=O)CN(CCCl)C1=O"
Reply: 99.3% (inactive)

Ask: Follow-up item: "COc1cc2c(cc1OCCCN1CCN(C(=S)SCCC(C#N)(c3ccccc3)c3ccccc3)CC1)N=C[C@@H]1CCCN1C2=O"
Reply: -35% (active)

Ask: Follow-up item: CCOC(=O)c1cnn(CC(C)O)c1NC(=O)NCc1cccc(F)c1 (stereo unspecified)
Reply: -2.06% (active)

Ask: Follow-up item: "C[N+]1=C(/C=C/c2ccccc2Cl)C(C)(C)c2ccccc21"
Reply: 47.1% (inactive)

Ask: Follow-up item: "Ic1ccc(Nc2nc3nonc3nc2Nc2ccc(I)cc2)cc1"
Reply: -1.76% (active)

Ask: Follow-up item: "Cc1c(O)cc(-c2cnc(N/N=C/c3ccccc3)s2)c(O)c1C"
Reply: 8.48% (active)

###

# Test system: CCRF-CEM leukemia
# assayComment: NCI-60 one-dose screen, 48 h
# cond: 10 µM unless noted
The panel holds about 83,000 compounds, 20% with a hit somewhere; the sample as a whole holds those more often. Calls of active or inactive are those of the source. The calls were made as follows: active = growth percent below 10; inactive = the rest.
Form entry, call: pick from true (1) = active, false (0) = inactive

>  <compound>
CN1CCOCCN(C)Cc2ccc3ccc(cc3c2)CN(C)CCOCCN(C)Cc2ccc3ccc(cc3c2)C1

>  <assignedClass>
false (0)

$$$$

Ask: Just curious, what result did "O=c1oc2c(cc1-c1ccccc1)c(=O)[nH]c1ccccc12" get here?
Reply: false (0)

Ask: Follow-up item: "COc1cc(-c2ccc[nH]2)[nH]c1/C=C1\N=C(C)C(CC(=O)OCC(C)(C)C)=C1C"
Reply: true (1)

###

# Tested on: SR leukemia
# assayComment: NCI-60 one-dose screen, 48 h
# cond: 10 µM unless noted
This is part of a sample that, as a whole, favours compounds with a hit. Of some 83,000 tested, about 20% had one in any assay. The source made the active and inactive calls. The calls were made as follows: active = growth percent below 10; inactive = the rest.
Form entry, call: pick from active, inactive

Solved entries (count: 3):
>  <smilesStructure>
CC(=O)c1sc(-c2ccc(F)cc2)cc1O

>  <targetSystem>
SR leukemia

>  <assignedClass>
inactive

$$$$
>  <smilesStructure>
C[N+]1=C(/C=C/c2ccccc2Cl)C(C)(C)c2ccccc21

>  <targetSystem>
SR leukemia

>  <assignedClass>
inactive

$$$$
>  <smilesStructure>
CS(=O)(=O)c1ccc(-c2nc3ccccc3n2CC(=O)N/N=C/c2ccccc2)cc1

>  <targetSystem>
SR leukemia

>  <assignedClass>
inactive

$$$$

Ask: Just curious, what result did "C=C1CC[C@@H]2C(C)(C)[C@H](O)CC[C@@]2(C)[C@@H]1COc1ccc2ccc(=O)oc2c1" get here?
Reply: inactive

Ask: Follow-up item: "CC1=Nc2cnc(Nc3ccc(N4CCCCC4)cc3)nc2Nc2ccccc21"
Reply: inactive

Ask: Follow-up item: "O=C(OCc1ccc2c(Cl)cc(Cl)c(O)c2n1)N1CCN(C(=O)c2cc3ccccc3[nH]2)CC1"
Reply: inactive

Ask: Follow-up item: "CN(C)CCC(=O)C1CC1"
Reply: inactive

###

# Tested on: OVCAR-8 ovarian
# assayComment: NCI-60 one-dose screen, 48 h
# cond: 10 µM unless noted
About 83,000 compounds went through this panel and 20% of them were active in at least one assay; those are over-represented in the sample as a whole. Activity calls are given as the source filed them. Rule for the calls: active = growth percent below 10; inactive = the rest.
Form entry, call: pick from T = active, F = inactive

Solved entries (count: 3):
>  <molecule>
COC12C=C/C(=C(/C(=O)OCc3cncnc3)C(=O)CCCCCCCCC3(OC)C=C/C(=C(/C(=O)OCc4cncnc4)C(=O)CCCCCCCC1)O3)O2

>  <assignedClass>
T

$$$$
>  <molecule>
Cc1[nH]n(-c2cccc(Cl)c2)c(=O)c1/C=C1\C=c2ccccc2=CC1=O

>  <assignedClass>
F

$$$$
>  <molecule>
COc1cc2c(cc1OCCCN1CCN(C(=S)SCCC(C#N)(c3ccccc3)c3ccccc3)CC1)N=C[C@@H]1CCCN1C2=O

>  <assignedClass>
T

$$$$

Ask: Just curious, what result did "CCN(CC)CCCNc1cc(OC)c(OC)c2cccnc12" get here?
Reply: F

Ask: Follow-up item: "C=C1C(=O)O[C@H]2[C@H]1CC/C(COC(=O)NCc1ccc(Cn3c(=O)sn(-c4ccc(I)cc4)c3=O)cc1)=C\CC[C@@]1(C)O[C@@H]21"
Reply: F

Ask: Follow-up item: "COc1ccc(C(=O)/C=C/c2ccccc2)cc1S(N)(=O)=O"
Reply: F

Ask: Follow-up item: [N-]=[N+]=NCC1OC(n2cnc3c(NC(=O)Nc4ccccc4)ncnc32)C2OC(=O)CC12 (stereo not drawn)
Reply: F

Ask: Follow-up item: "Fc1cccc(-c2nc(-c3c[nH]c4ncccc34)cs2)c1"
Reply: F

Ask: Follow-up item: "ClC(Cl)c1nc(-c2ccccc2)n2nc(-c3ccccc3)cc2n1"
Reply: F

Ask: Follow-up item: "CCOC(=O)C#Cc1c(C(=O)OCC)nnn1[C@@H]1O[C@H](COC)[C@@H](OC)[C@H]1OC"
Reply: F

Ask: Follow-up item: "COc1ccc(-c2cc(-c3cccnc3)nc3sc4c(N)c(C(C)=O)c(-c5ccccc5)nc4c23)cc1OC"
Reply: F

Ask: Follow-up item: "O=C1CCCCN1c1ccc(C2=NCCCN2)cc1"
Reply: F

Ask: Follow-up item: "CC(C)(C)c1ccc(S(=O)(=O)Oc2ccc(-c3sc4cc(OS(=O)(=O)c5ccc(C(C)(C)C)cc5)ccc4c3C(=O)c3ccc(OCCN4CCCCC4)cc3)cc2)cc1"
Reply: F

Ask: Follow-up item: "Fc1cc2[nH]ncc2c2c3c(c(-c4cn[nH]c4C(F)(F)F)nc12)CCCC3"
Reply: T

Ask: Follow-up item: "COc1cc([C@@H](CCO)C[C@H](C)c2ccc3ccccc3c2)cc(OC)c1OC"
Reply: F

Ask: Follow-up item: "CCn1cc(Cc2cc(C(=O)Nc3cc4cc(OC)c(OC)cc4c(C)n3)ccc2Cl)cn1"
Reply: F

Ask: Follow-up item: "CC/C(=C(\c1ccc(Cl)cc1)c1ccc(OCCN2CCCCC2)cc1)c1ccc(O)cc1"
Reply: F

Ask: Follow-up item: "O=C(/C=C/c1ccccc1)c1cccc2ccccc12"
Reply: F
